Data origin: patent US20140178394A1

Molecular target: T1, HLA-A*0201 on the CEM.T2 cell line (T2) (human)
T1 construct: whole, on cells
Test: T2 cell HLA-A*0201 stabilization, 100 µM peptide, flow cytometry; % of HBV positive control
Decision: CEM.T2 % Binding compared against 40%; not below it gives T, below it gives F.

Please review the entries below; each comes with its answer.
AVTSEFHLV (Synthetic nonapeptide of human nectin4; the range counts on nectin4) [Nectin4 peptide 203 (AVTSEFHLV)]
T
LLLLASFTG (Synthetic nonapeptide of human nectin4; the range counts on nectin4) [Nectin4 peptide 19 (LLLLASFTG)]
F
SMNGQPLTC (Synthetic nonapeptide of human nectin4; the range counts on nectin4) [Nectin4 peptide 215 (SMNGQPLTC)]
F

Reported CEM.T2 % Binding at or above 40%? VLVPPLPSL (Synthetic nonapeptide of human nectin4; the range counts on nectin4) [antigen peptide N4-145 (VLVPPLPSL)] T

CEM.T2 % Binding >= 40% for LLASFTGRC (Synthetic nonapeptide of human nectin4; the range counts on nectin4; also called Pep N° 21) [Nectin4 peptide 21 (LLASFTGRC)] ? T

Please check the record ALLFCLLVV (Synthetic nonapeptide of human nectin4; the range counts on nectin4) [Nectin4 peptide 358 (ALLFCLLVV)] and state if its CEM.T2 % Binding is at or above 40%. F
